CC50 values by entry
system: CCRF-CEM/C2; type: cell-based
MEASUREMENT_KIND: CC50 (µM)

COMPOUND: CC(=O)OCC=C(C)CC[C@@H]1[C@@]2(C)CCCC(C)(C)[C@@H]2CC[C@@]1(C)O [Label-13-ene-8, 15-yl acetate, labd-13-ene,8α-ol,15-yl acetate]
MEASUREMENT_KIND: CC50
OBS_VALUE: 111
--
COMPOUND: CC(=CCO)CC[C@@H]1[C@@]2(C)CCCC(C)(C)[C@@H]2CC[C@@]1(C)O [Label-13-ene-8, 15 diol, labd-13-ene-8α,15-diol]
MEASUREMENT_KIND: CC50
OBS_VALUE: 108
--
COMPOUND: C=C[C@](C)(O)CC[C@@H]1[C@@]2(C)CCCC(C)(C)[C@@H]2CC[C@@]1(C)O [Label-14-ene-8, 13 diol, labd-14-ene-8,13-diol]
MEASUREMENT_KIND: CC50
OBS_VALUE: 75.8

----------
system: HL60; test: Cytotoxic activity, MTT method, 48 h; assay type: cell-based
CC50 values by entry
MEASUREMENT_KIND: CC50 (µM)

COMPOUND: CC(=O)OCC=C(C)CC[C@@H]1[C@@]2(C)CCCC(C)(C)[C@@H]2CC[C@@]1(C)O [Label-13-ene-8, 15-yl acetate, labd-13-ene,8α-ol,15-yl acetate]
MEASUREMENT_KIND: CC50
UNIT_ABBREV: µM
OBS_VALUE: 89.3
//
COMPOUND: CC(=CCO)CC[C@@H]1[C@@]2(C)CCCC(C)(C)[C@@H]2CC[C@@]1(C)O [Label-13-ene-8, 15 diol, labd-13-ene-8α,15-diol]
MEASUREMENT_KIND: CC50
UNIT_ABBREV: µM
OBS_VALUE: 91.8
//
COMPOUND: C=C[C@](C)(O)CC[C@@H]1[C@@]2(C)CCCC(C)(C)[C@@H]2CC[C@@]1(C)O [Label-14-ene-8, 13 diol, labd-14-ene-8,13-diol]
MEASUREMENT_KIND: CC50
UNIT_ABBREV: µM
OBS_VALUE: 80

----------
system: MOLT4; experiment: Cytotoxic activity, MTT method, 48 h; assay type: cell-based

COMPOUND: CC(=CCO)CC[C@@H]1[C@@]2(C)CCCC(C)(C)[C@@H]2CC[C@@]1(C)O [Label-13-ene-8, 15 diol, labd-13-ene-8α,15-diol]
UNIT_ABBREV: µM
CC50: 120

COMPOUND: CC(=O)OCC=C(C)CC[C@@H]1[C@@]2(C)CCCC(C)(C)[C@@H]2CC[C@@]1(C)O [Label-13-ene-8, 15-yl acetate, labd-13-ene,8α-ol,15-yl acetate]
UNIT_ABBREV: µM
CC50: 137

COMPOUND: C=C[C@](C)(O)CC[C@@H]1[C@@]2(C)CCCC(C)(C)[C@@H]2CC[C@@]1(C)O [Label-14-ene-8, 13 diol, labd-14-ene-8,13-diol]
UNIT_ABBREV: µM
CC50: 77.7

----------
Test system: PBML (resting)
Assay type: cell-based, human
Experimental: Human cancer cell lines were used for in vitro drug testing. […] Cells were added at the appropriate inoculation densities in 96-well micro titer plates and preincubated for 24 hours in a moist atmosphere of 5% CO2 in air at 37 °C, to allow stabilization prior to addition of the test compounds. […] The activity for each compound on each cell line was determined by the MTT method with modifications. […]
CC50 values by entry

COMPOUND: CC(=O)OCC=C(C)CC[C@@H]1[C@@]2(C)CCCC(C)(C)[C@@H]2CC[C@@]1(C)O [Label-13-ene-8, 15-yl acetate, labd-13-ene,8α-ol,15-yl acetate]
CC50: > 100 µM
//
COMPOUND: C=C[C@](C)(O)CC[C@@H]1[C@@]2(C)CCCC(C)(C)[C@@H]2CC[C@@]1(C)O [Label-14-ene-8, 13 diol, labd-14-ene-8,13-diol]
CC50: 93.1 µM
//
COMPOUND: CC(=CCO)CC[C@@H]1[C@@]2(C)CCCC(C)(C)[C@@H]2CC[C@@]1(C)O [Label-13-ene-8, 15 diol, labd-13-ene-8α,15-diol]
CC50: > 100 µM

Reference source for all entries: patent USRE39061E1
